Cited source: PubChem BioAssay

Experiment description: TLR3 IRF3 reporter activation blockers – cell-based, poly I:C stimulus, luciferase, 10K MLSCN set, primary screen (AID 602277)
Conditions: HEK293-TLR3 RL24 IRF3 luciferase reporter, at 10 µM, hits give high values
Where inhibition equals or exceeds 10%, the correct label is T; where it does not, the label is F.

**Query** Could you tell me if the measured inhibition of COc1ccccc1NC(=O)N1CCN(c2cccc(C(F)(F)F)c2)CC1 reaches 10% or more?
**Result** F

**Query** Could you tell me if the measured inhibition of Cc1cc(C(F)F)n2nc(C(=O)Nc3ccc(S(=O)(=O)N4CCCCCC4)cc3)nc2n1 reaches 10% or more?
**Result** T

**Query** Could you tell me if the measured inhibition of Cc1ccc(-c2nnc(SCC(=O)N3CC(C)CC(C)C3)o2)cc1C (stereo not drawn) reaches 10% or more?
**Result** F

**Query** Could you tell me if the measured inhibition of Cc1ccc(C(O)c2nc3ccccc3n2C(C)C)cc1 (stereo not drawn) reaches 10% or more?
**Result** T

**Query** Could you tell me if the measured inhibition of Cc1nc2ccc(NC(=O)N3CCSCC3)cc2s1 reaches 10% or more?
**Result** F
